- System: HL-60
- Assay remarks: NCI tumour cell line growth inhibition, 48 h
Calls of active or inactive are those of the source. Rule as the data show it: active = GI50 up to about 1.1 µM and inactive = higher.
Labels: active, inactive

- Compound: "Cc1cccc(NC(=O)C(=O)C(C(=O)c2ccccc2F)C2OC(=O)c3ccccc32)c1Cl (stereo not drawn)"
  System under test: "HL-60"
  Class name: "inactive"
- Compound: "Cc1cc2c(cc1C)[n+]([O-])c(C(=O)N1CCN(c3ccc([N+](=O)[O-])cc3)CC1)c(C)[n+]2[O-]"
  System under test: "HL-60"
  Class name: "inactive"
- Compound: "NNC(=O)c1ccccc1Nc1nc(-c2cccs2)nc2ccc(Br)cc12"
  System under test: "HL-60"
  Class name: "inactive"
- Compound: "C/C(=C\\CNc1nc(Cl)nc2[nH]cnc12)CO"
  System under test: "HL-60"
  Class name: "inactive"
- Compound: "N#CCN1CCOCCOCCN(CC#N)CCOCCOCC1"
  System under test: "HL-60"
  Class name: "inactive"
- Compound: "CC1(C)OCC=CCO1"
  System under test: "HL-60"
  Class name: "inactive"
- Compound: "COc1cc2c(cc1OC)c1c(OC)c(OC)cc3c1c1c2sc(=S)n1CC3"
  System under test: "HL-60"
  Class name: "inactive"
- Compound: "CC(O)CN1c2ccccc2Sc2ccc(Cl)cc21 (stereo not drawn)"
  System under test: "HL-60"
  Class name: "inactive"
- Compound: "CN1Cc2ccccc2S(=O)(=O)n2cccc2C1=O"
  System under test: "HL-60"
  Class name: "inactive"
- Compound: "CCC1N2CCCCC2[C@@H]2c3[nH]c4ccccc4c3CCN12 (stereo partly drawn)"
  System under test: "HL-60"
  Class name: "inactive"
- Compound: "[N-]=[N+]=Nc1nc2ccccc2c(N=[N+]=[N-])c1Cl"
  System under test: "HL-60"
  Class name: "inactive"
- Compound: "CCOC(=O)/C1=C(\\C)N(c2ccc(C)cc2)C(=O)c2ccccc2C(=O)c2c(O)ccc(O)c21"
  System under test: "HL-60"
  Class name: "inactive"
- Compound: "C#CC1/C(=C\\C(=O)OC)CCCC1O (stereo not drawn)"
  System under test: "HL-60"
  Class name: "inactive"
- Compound: "CCOC(=O)Nn1c(CC#N)nnc1Cc1ccccc1"
  System under test: "HL-60"
  Class name: "inactive"
- Compound: "Clc1ccc(Cc2nc3cc(Cl)c(Cl)cc3n2CC2CCCN3CCCCC23)cc1Cl (stereo not drawn)"
  System under test: "HL-60"
  Class name: "inactive"
- Compound: "C/C(=N\\n1c(Cc2ccccc2)n[nH]c1=O)c1ccc([N+](=O)[O-])cc1"
  System under test: "HL-60"
  Class name: "inactive"
- Compound: "C=C1C(=O)O[C@@H]2[C@H]1C[C@H](I)[C@@]1(C)CC[C@H](O1)[C@](C)(I)CCCC(C)[C@@H]2O (stereo partly drawn)"
  System under test: "HL-60"
  Class name: "inactive"
- Compound: "C=C1CC2CC[C@@]34C[C@H]5O[C@@H]6C(O[C@H]7CC[C@H](CC(=O)OC8[C@H](C)C9OC%10C[C@]%11(C[C@@H]%12O[C@]%13(C[C@H](C)[C@@H]%14O[C@H]([C@H](O)C[C@H](O)CO)C[C@@H]%14O%13)C[C@H](C)[C@@H]%12O%11)OC%10CC9O[C@H]8C[C@H]8O[C@H](CC[C@@H]1O2)C[C@@H](C)C8=C)O[C@H]7[C@@H]6O3)[C@@H]5O4 (stereo partly drawn)"
  System under test: "HL-60"
  Class name: "active"
